Provide the reported RG Ox avg of each item.
Test system: test strain 923 pPvra-lux
Assay: Secondary screen / synergy confirmation of Top 40, relative growth with oxacillin
Type: cell-based, Staphylococcus aureus
Details: Top 40 library, compound at maximum non-GI conc
Provide a numeric answer; units are not to be included.

Problem: Param readout = RG Ox avg; param system = test strain 923 pPvra-lux; param query = CSc1cccc(-c2nnc(NC(=O)c3nc4ccccc4s3)o2)c1 ; response: value
Solution: 0.03

Problem: Continue with CC1CCN(C(C)CNC(=O)Nc2ccc(C(F)(F)F)cc2)CC1 (stereo not drawn)
Solution: 0.95

Problem: Continue with O=C(CCCSc1ccc(Cl)cc1)Nc1nc(-c2ccccn2)cs1
Solution: 1.03

Problem: Continue with O=C(Nc1cccc(C(F)(F)F)c1)N1CCN(c2ccc(Nc3cccnc3)nn2)CC1
Solution: 1.10

Problem: Continue with CN1CCN(c2nc(Nc3ccc(SC(F)F)cc3)c3cnn(-c4ccccc4)c3n2)CC1
Solution: 0.30

Problem: Continue with O=C(Nc1cccc(C(F)(F)F)c1)N1CCN(c2ccc3nncn3n2)CC1
Solution: 1.08

Problem: Continue with O=C(Nc1nnc(C2=COCCO2)o1)c1cccc(Br)c1
Solution: 0.96

Problem: Continue with Cc1nnsc1C(=O)Nc1nc(-c2cc3ccccc3o2)cs1
Solution: 0.04

Problem: Continue with O=C(Nc1ccccc1-c1nc2ccccc2[nH]1)c1ccccc1Br
Solution: 0.92
